Test: CC50 assay (CellTiter-Glo) in Huh-7 HCV replicon cells
Format: cell-based, human
Settings: human, 3 days incubation, CellTiter-Glo readout
CC50 at 3 days: recorded values

These solved cases illustrate the format of a correct answer.
N#CC1(Nc2nc(NCc3ccc(S(N)(=O)=O)cc3)nc3ccc(-c4ccc(F)cc4)nc23)CC1 5 to 25 µM
Nc1cnc(-c2ccc3nc(NCc4ccc(S(N)(=O)=O)cc4)nc(NCC(F)(F)F)c3n2)cn1 > 25 µM
CCOc1nc(NCc2ccc(F)cc2)nc2ccc(-c3ccc(S(N)(=O)=O)cc3)nc12 5 to 25 µM

Given the molecule `CCOc1nc(NCc2ccc(S(N)(=O)=O)cc2)nc2ccc(-c3ccc(NC(=O)[C@H](C)N)cc3)nc12` , what is its reported CC50 at 3 days?
5 to 25 µM

###

Experiment: CC50 assay (CellTiter-Glo) in Huh-7 HCV replicon cells
Format: cell-based, human
Conditions: human, 3 days incubation, CellTiter-Glo readout
CC50 at 3 days: recorded values

These solved cases illustrate the format of a correct answer.
NS(=O)(=O)c1ccc(CNc2nc(NCC(F)(F)F)c3nc(-c4ccc(Cl)c(S(=O)(=O)N[C@@H]5CCNC5)c4)ccc3n2)cc1 < 5 µM
CS(=O)(=O)CCNc1nc(NCc2ccc(S(N)(=O)=O)cc2)nc2ccc(-c3ccc(NC(=O)C4(O)CC4)cc3)nc12 > 25 µM
NC(=O)c1ccc(-c2ccc3nc(NCc4ccc(F)cc4)nc(NCC(F)(F)F)c3n2)cc1 < 5 µM
CCOc1nc(NCc2ccc(F)cc2)nc2ccc(-c3ccc(CO)o3)nc12 5 to 25 µM
NS(=O)(=O)c1ccc(CNc2nc(OC3CC3)c3nc(-c4ccc(F)cc4)ccc3n2)cc1 5 to 25 µM

Given the molecule `NC(=O)CCNc1nc(NCC(F)(F)F)c2nc(-c3ccc(F)cc3)ccc2n1` , what is its reported CC50 at 3 days?
5 to 25 µM

Do the same for `Cc1noc(C)c1-c1ccc2nc(NCc3ccc(S(N)(=O)=O)cc3)nc(NCC(F)(F)F)c2n1` please
< 5 µM

Do the same for `NS(=O)(=O)c1ccc(CNc2nc(C3CC3)c3nc(-c4ccc(C(=O)NC5CC5)cc4)ccc3n2)cc1` please
< 5 µM

###

CC50 at 3 days: recorded values
Assay: CC50 assay (CellTiter-Glo) in Huh-7 HCV replicon cells
Type: cell-based, human
Conditions: human, 3 days incubation, CellTiter-Glo readout

These solved cases illustrate the format of a correct answer.
CCOc1nc(NCc2ccc(-n3cncn3)cc2)nc2ccc(-c3ccc(F)cc3)nc12 > 25 µM
NS(=O)(=O)c1ccc(CNc2nc(NCC(F)(F)F)c3nc(-c4cc[nH]c(=O)c4)ccc3n2)cc1 > 25 µM
CCOc1nc(NCc2ccc(F)c(Cl)c2)nc2ccc(-c3ccc(F)cc3)nc12 5 to 25 µM

Given the compound `CCOc1nc(NCc2ccc(F)cc2)nc2ccc(-c3ccc(NC(=O)OCCN4CCCC4)cc3)nc12` , what is its reported CC50 at 3 days?
< 5 µM

###

Experiment: CC50 assay (CellTiter-Glo) in Huh-7 HCV replicon cells
Assay type: cell-based, human
Conditions: human, 3 days incubation, CellTiter-Glo readout
Description: The anti-HCV activity of the pyrido[3,2-d]pyrimidine derivatives of this invention was tested in a human hepatoma Huh-7 cell line harboring a HCV replicon. The assay comprised the following steps: Step 1: Compound Preparation and Serial Dilution • 1. for water soluble pyrido[3,2-d]pyrimidine derivatives, a volume of 500 μL of solution in cell media (DMEM, 10% FBS, P/S, L-Glutamine) was prepared with a concentration being twice the concentration of the starting final serial dilution concentration. […]
CC50 at 3 days: recorded values

C[C@@H](O)C(=O)Nc1ccc(-c2ccc3nc(NCc4ccc(S(N)(=O)=O)cc4)nc(NCC(F)(F)F)c3n2)cc1 5 to 25 µM
CCOc1nc(NCc2ccc(S(N)(=O)=O)cc2)nc2ccc(-c3ccc(NC(=O)[C@@H](N)CO)cc3)nc12 5 to 25 µM
CC(C)Nc1nc(NCc2ccccn2)nc2ccc(-c3ccc(F)cc3)nc12 5 to 25 µM

Now for another entry.
Given the compound `CC(C)(N)C(=O)Nc1ccc(-c2ccc3nc(NCc4ccc(S(N)(=O)=O)cc4)nc(NCCS(C)(=O)=O)c3n2)cc1` , what is its reported CC50 at 3 days?
> 25 µM

###

CC50 at 3 days: recorded values
Assay: CC50 assay (CellTiter-Glo) in Huh-7 HCV replicon cells
Format: cell-based, human
Conditions: human, 3 days incubation, CellTiter-Glo readout

COMPOUND	OBSERVED_VALUE
NS(=O)(=O)c1ccc(CNc2nc(C3CC3)c3nc(-c4ccc(F)cc4)ccc3n2)cc1	< 5 µM

Given the compound `CCOc1nc(NCc2ccc(S(N)(=O)=O)cc2)nc2ccc(-c3ccc(NC(=O)C4(O)CC4)cc3)nc12` , what is its reported CC50 at 3 days?
5 to 25 µM

Do the same for `C[C@H](N)C(=O)Nc1ccc(-c2ccc3nc(NCc4ccc(S(N)(=O)=O)cc4)nc(NCC(F)(F)F)c3n2)cc1` please
> 25 µM

Do the same for `CCOc1nc(NCc2ccc(CS(=O)(=O)NC)cc2)nc2ccc(-c3ccc(F)cc3)nc12` please
5 to 25 µM

Do the same for `CS(=O)(=O)CCNc1nc(NCc2ccc(S(N)(=O)=O)cc2)nc2ccc(-c3ccc(F)cc3)nc12` please
< 5 µM

Do the same for `CCOc1nc(NCc2ccc(S(N)(=O)=O)cc2)nc2ccc(-c3ccc(F)c(Cl)c3)nc12` please
< 5 µM

###

CC50 at 3 days: recorded values
Assay: CC50 assay (CellTiter-Glo) in Huh-7 HCV replicon cells
Type: cell-based, human
Details: human, 3 days incubation, CellTiter-Glo readout
Procedure: The anti-HCV activity of the pyrido[3,2-d]pyrimidine derivatives of this invention was tested in a human hepatoma Huh-7 cell line harboring a HCV replicon. The assay comprised the following steps: Step 1: Compound Preparation and Serial Dilution • 1. for water soluble pyrido[3,2-d]pyrimidine derivatives, a volume of 500 μL of solution in cell media (DMEM, 10% FBS, P/S, L-Glutamine) was prepared with a concentration being twice the concentration of the starting final serial dilution concentration. […]

C[C@H](N)C(=O)Nc1ccc(-c2ccc3nc(NCc4ccc(S(N)(=O)=O)cc4)nc(NCC(F)(F)F)c3n2)cc1Cl < 5 µM
CS(=O)(=O)Nc1cc(-c2ccc3nc(NCc4ccc(S(N)(=O)=O)cc4)nc(NCC(F)(F)F)c3n2)ccc1F 5 to 25 µM

Given the compound `CCOc1nc(NCc2ccc(F)cc2)nc2ccc(-c3cnc(N)cn3)nc12` , what is its reported CC50 at 3 days?
> 25 µM

Do the same for `CCOc1nc(NCc2ccc(F)cc2F)nc2ccc(-c3ccc(C(=O)NC4CC4)cc3)nc12` please
5 to 25 µM

Do the same for `NS(=O)(=O)CCNc1nc(NCC(F)(F)F)c2nc(-c3ccc(F)cc3)ccc2n1` please
5 to 25 µM

Do the same for `Fc1ccc(-c2ccc3nc(NCc4ccc(N5CCCC5)cc4)nc(NCC(F)(F)F)c3n2)cc1` please
5 to 25 µM

Do the same for `CCOc1nc(NCCOC)nc2ccc(-c3ccc(F)cc3)nc12` please
> 25 µM

Do the same for `CCOc1nc(NCc2ccc(F)cc2)nc2ccc(-c3cccc(NS(=O)(=O)C4CC4)c3)nc12` please
< 5 µM

Do the same for `CCOc1nc(NCc2ccc(S(N)(=O)=O)cc2)nc2ccc(-c3cnc(N)s3)nc12` please
< 5 µM

Do the same for `CCOc1nc(NCc2ccc(F)cc2)nc2ccc(-c3ccc(F)c(Cl)c3)nc12` please
5 to 25 µM

###

Experiment: CC50 assay (CellTiter-Glo) in Huh-7 HCV replicon cells
Assay type: cell-based, human
Details: human, 3 days incubation, CellTiter-Glo readout
REPORTED_PROPERTY: CC50 at 3 days

These solved cases illustrate the format of a correct answer.
MOLECULE	OBSERVED_VALUE
CCOc1nc(NCc2ccc(S(N)(=O)=O)cc2)nc2ccc(-c3ccc(C(=O)NC4(C#N)CC4)cc3)nc12	5 to 25 µM
CCOc1nc(NCc2ccc(F)c(F)c2)nc2ccc(-c3ccc(F)cc3)nc12	5 to 25 µM
CS(=O)(=O)CCNc1nc(NCc2ccc(S(N)(=O)=O)cc2)nc2ccc(-c3ccc(C(=O)NC4CC4)cc3)nc12	> 25 µM
Nc1ncc(-c2ccc3nc(NCc4ccc(S(N)(=O)=O)cc4)nc(NCC(F)(F)F)c3n2)s1	5 to 25 µM
CCOc1nc(NCc2ccc(F)cc2)nc2ccc(-c3ccc(NC(=O)NCCN4CCCC4)cc3)nc12	< 5 µM

Now for another entry.
Given the molecule `CS(=O)(=O)N(CCO)c1cccc(-c2ccc3nc(NCc4ccc(F)cc4)nc(NCC(F)(F)F)c3n2)c1` , what is its reported CC50 at 3 days?
5 to 25 µM
